SYSTEM NAME: Serine/threonine-protein kinase D2 (Homo sapiens); note: in the data inactive means no Kd found up to 30 µM
Sequence (Q9BZL6 whole entry): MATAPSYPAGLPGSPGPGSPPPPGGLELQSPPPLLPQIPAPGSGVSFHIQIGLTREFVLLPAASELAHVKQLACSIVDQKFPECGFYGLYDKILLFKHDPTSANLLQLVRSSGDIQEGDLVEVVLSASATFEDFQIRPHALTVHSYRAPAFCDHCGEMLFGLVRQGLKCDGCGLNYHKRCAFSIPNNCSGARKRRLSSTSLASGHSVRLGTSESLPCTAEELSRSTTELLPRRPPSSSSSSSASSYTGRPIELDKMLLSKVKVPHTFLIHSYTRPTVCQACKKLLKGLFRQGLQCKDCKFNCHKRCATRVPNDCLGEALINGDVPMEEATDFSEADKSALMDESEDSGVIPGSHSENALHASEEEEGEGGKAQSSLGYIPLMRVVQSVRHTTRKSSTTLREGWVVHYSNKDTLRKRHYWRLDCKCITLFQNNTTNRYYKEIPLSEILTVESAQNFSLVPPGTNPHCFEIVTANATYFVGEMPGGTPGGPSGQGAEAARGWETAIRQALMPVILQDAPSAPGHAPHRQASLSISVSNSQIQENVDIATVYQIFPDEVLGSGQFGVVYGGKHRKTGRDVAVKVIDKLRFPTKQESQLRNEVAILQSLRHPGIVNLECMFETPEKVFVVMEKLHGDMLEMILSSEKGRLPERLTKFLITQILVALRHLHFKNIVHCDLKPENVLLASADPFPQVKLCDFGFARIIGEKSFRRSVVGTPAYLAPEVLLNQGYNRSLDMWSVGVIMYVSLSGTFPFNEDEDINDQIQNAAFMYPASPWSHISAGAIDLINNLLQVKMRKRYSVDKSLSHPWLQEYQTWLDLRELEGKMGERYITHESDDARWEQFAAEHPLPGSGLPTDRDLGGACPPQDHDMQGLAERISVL
Active and inactive are the calls of the source.
Please reply with one of these outcomes: true (1) (active), false (0) (inactive)

Reference set, count: 2
COMPOUND STRUCTURE STRING: CNC(=O)c1ccc(Nc2ncc(C(F)(F)F)c(NCc3nccnc3N(C)S(C)(=O)=O)n2)cc1
GROUP: false (0)
--
COMPOUND STRUCTURE STRING: N#CCNC(=O)c1ccc(-c2ccnc(Nc3ccc(N4CCOCC4)cc3)n2)cc1
GROUP: true (1)

Alright, here's another compound for you.
Q: # lookup: test call for COc1cc(F)c(F)c(Nc2ccc(I)cc2F)c1NS(=O)(=O)C1(C[C@H](O)CO)CC1
Ans: false (0)

---

SYSTEM NAME: TRAF2 and NCK-interacting protein kinase (Homo sapiens); note: in the data inactive means no Kd found up to 30 µM
Sequence (Q9UKE5 whole entry): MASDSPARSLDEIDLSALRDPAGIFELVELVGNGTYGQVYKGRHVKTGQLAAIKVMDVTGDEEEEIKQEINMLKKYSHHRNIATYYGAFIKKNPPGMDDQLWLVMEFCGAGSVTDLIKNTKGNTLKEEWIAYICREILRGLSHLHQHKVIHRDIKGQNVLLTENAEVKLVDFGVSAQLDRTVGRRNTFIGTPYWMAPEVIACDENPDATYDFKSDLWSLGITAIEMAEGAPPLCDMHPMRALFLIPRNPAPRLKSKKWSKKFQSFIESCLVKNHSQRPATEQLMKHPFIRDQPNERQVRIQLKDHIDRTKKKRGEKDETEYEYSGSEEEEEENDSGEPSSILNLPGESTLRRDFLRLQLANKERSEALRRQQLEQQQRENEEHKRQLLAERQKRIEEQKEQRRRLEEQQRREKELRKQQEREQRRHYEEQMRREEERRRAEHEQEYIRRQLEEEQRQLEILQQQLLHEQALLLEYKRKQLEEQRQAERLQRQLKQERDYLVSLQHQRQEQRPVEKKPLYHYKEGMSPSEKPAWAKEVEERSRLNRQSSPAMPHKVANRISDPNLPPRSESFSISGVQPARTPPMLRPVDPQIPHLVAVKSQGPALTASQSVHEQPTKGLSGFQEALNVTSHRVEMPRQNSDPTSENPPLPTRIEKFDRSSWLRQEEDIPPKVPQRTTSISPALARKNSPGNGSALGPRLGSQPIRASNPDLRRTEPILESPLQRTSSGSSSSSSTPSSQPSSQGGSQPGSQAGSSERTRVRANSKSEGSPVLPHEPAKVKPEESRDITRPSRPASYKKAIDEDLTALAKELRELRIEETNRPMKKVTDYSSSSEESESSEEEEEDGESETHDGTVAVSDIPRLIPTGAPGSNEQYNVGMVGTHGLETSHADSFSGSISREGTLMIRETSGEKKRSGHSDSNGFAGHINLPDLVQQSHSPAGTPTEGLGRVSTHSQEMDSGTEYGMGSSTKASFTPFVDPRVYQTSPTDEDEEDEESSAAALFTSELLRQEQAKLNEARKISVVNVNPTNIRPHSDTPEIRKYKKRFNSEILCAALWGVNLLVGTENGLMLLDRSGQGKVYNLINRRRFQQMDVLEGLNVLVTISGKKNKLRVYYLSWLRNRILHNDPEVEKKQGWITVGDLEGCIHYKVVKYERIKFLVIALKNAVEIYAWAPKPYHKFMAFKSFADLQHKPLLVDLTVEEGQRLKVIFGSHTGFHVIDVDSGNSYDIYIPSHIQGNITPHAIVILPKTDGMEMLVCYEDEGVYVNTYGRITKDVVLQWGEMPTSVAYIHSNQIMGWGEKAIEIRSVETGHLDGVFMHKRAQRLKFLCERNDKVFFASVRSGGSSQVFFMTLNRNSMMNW
Calls of active or inactive are those of the source.
Entry note: the call must match one of yes (1) (active), no (0) (inactive)

Below, 3 molecules whose answers are already recorded.
MOLECULE: c1cc(OCCN2CCCCC2)cc(-c2n[nH]c3ccc(-c4nc[nH]n4)cc23)c1 [CC-401]
GROUP: yes (1)
--
MOLECULE: CC[C@@](C)(Nc1ccnc(-c2c[nH]c3ncccc23)n1)C(=O)NCC(F)(F)F [DECERNOTINIB]
GROUP: no (0)
--
MOLECULE: Cc1c(NC(=O)OC[C@@H]2COCCN2)cn2ncnc(Nc3ccc4c(cnn4Cc4cccc(F)c4)c3)c12 [AC-480]
GROUP: no (0)

Q: Hi, do you know how C=CCn1c(=O)c2cnc(Nc3ccc(N4CCN(C)CC4)cc3)nc2n1-c1cccc(C(C)(C)O)n1 [ADAVOSERTIB] came out in this test?
Ans: no (0)

Q: Which outcome did this test record for the molecule CNC(=O)c1cccc(-c2ccc3c(N4CCOC[C@@H]4C)nc(N4CCOC[C@@H]4C)nc3n2)c1 [VISTUSERTIB] ?
Ans: no (0)

Q: What did the test return for CCc1nc(C(N)=O)c(Nc2ccc(N3CCC(N4CCN(C)CC4)CC3)c(OC)c2)nc1NC1CCOCC1 [GILTERITINIB] ?
Ans: no (0)

Q: Identify the outcome logged in this assay for the molecule shown: COc1cc(F)c(F)c(Nc2ccc(I)cc2F)c1NS(=O)(=O)C1(C[C@H](O)CO)CC1 [REFAMETINIB]
Ans: no (0)

---

Active and inactive are the calls of the source.
Record: Kd reported on Elongation factor Tu, mitochondrial (Homo sapiens, UniProt P49411).

In the examples that follow, each entry is paired with its recorded Kd.
COMPOUND: CCc1nc(C(N)=O)c(Nc2ccc(N3CCC(N4CCN(C)CC4)CC3)c(OC)c2)nc1NC1CCOCC1 [GILTERITINIB]
Kd: 0.464 µM
//
COMPOUND: NC(=O)c1ccc(N(C(N)=O)c2c(F)cccc2F)nc1-c1ccc(F)cc1F [VX-702]
Kd: > 30 µM (inactive)
//
COMPOUND: S=C(NCc1ccc2c(c1)OCO2)N1CCN(c2ncnc3c2oc2ccccc23)CC1 [AMUVATINIB]
Kd: > 30 µM (inactive)

Q: Write down measured Kd (Elongation factor Tu, mitochondrial (Homo sapiens, UniProt P49411)) for this compound. CC[C@@](C)(Nc1ccnc(-c2c[nH]c3ncccc23)n1)C(=O)NCC(F)(F)F [DECERNOTINIB]
Ans: > 30 µM (inactive)

Q: Find Kd for Cn1c(=O)c(F)c(Nc2ccc(I)cc2F)c2c(=O)n(C[C@@H](O)CO)cnc21 [TAK-733] on Elongation factor Tu, mitochondrial (Homo sapiens, UniProt P49411) and write it down.
Ans: > 30 µM (inactive)

Q: // output Kd; input c1cc(OCCN2CCCCC2)cc(-c2n[nH]c3ccc(-c4nc[nH]n4)cc23)c1 [CC-401] ; system Elongation factor Tu, mitochondrial (Homo sapiens, UniProt P49411); note: in the data inactive means no Kd found up to 30 µM
Ans: > 30 µM (inactive)

Q: Enter Kd (test system Elongation factor Tu, mitochondrial (Homo sapiens, UniProt P49411)) for C=CCn1c(=O)c2cnc(Nc3ccc(N4CCN(C)CC4)cc3)nc2n1-c1cccc(C(C)(C)O)n1 [ADAVOSERTIB]; note: in the data inactive means no Kd found up to 30 µM
Ans: > 30 µM (inactive)

Q: Quote Elongation factor Tu, mitochondrial (Homo sapiens, UniProt P49411) Kd for entry O=C(Nc1ccc(OC(F)(F)F)cc1)c1sccc1NCc1ccnc2ccccc12 [OSI-930] .
Ans: > 30 µM (inactive)

Q: Supply Kd measured with Elongation factor Tu, mitochondrial (Homo sapiens, UniProt P49411) for COc1cc(Nc2ncc(F)c(Nc3ccc4c(n3)N(COP(=O)(O)O)C(=O)C(C)(C)O4)n2)cc(OC)c1OC [FOSTAMATINIB] .
Ans: > 30 µM (inactive)

---

Active and inactive are the calls of the source.
Observed Kd values for Guanine nucleotide-binding protein G(i) subunit alpha-2 (Homo sapiens) are listed in what follows.

Check out these entries, answers already filled in.
MOLECULE: CC(C)CC(=O)Nc1[nH]nc2c1CN(C(=O)C1CCN(C)CC1)C2(C)C [PHA-793887]
SYSTEM NAME: Guanine nucleotide-binding protein G(i) subunit alpha-2 (Homo sapiens); note: in the data inactive means no Kd found up to 30 µM
Sequence (P04899 whole entry): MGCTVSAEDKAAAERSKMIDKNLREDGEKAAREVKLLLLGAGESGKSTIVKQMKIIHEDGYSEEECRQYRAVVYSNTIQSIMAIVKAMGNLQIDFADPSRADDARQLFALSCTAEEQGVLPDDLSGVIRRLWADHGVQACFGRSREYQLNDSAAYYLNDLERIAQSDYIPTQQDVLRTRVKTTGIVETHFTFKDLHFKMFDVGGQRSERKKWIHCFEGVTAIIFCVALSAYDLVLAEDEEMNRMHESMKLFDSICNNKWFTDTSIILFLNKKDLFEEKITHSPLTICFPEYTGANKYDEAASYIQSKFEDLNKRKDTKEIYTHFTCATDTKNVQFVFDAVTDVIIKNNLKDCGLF
OBSERVED: > 30 µM (inactive)

MOLECULE: CCOc1ccn(-c2ccc(F)cc2)c(=O)c1C(=O)Nc1ccc(Oc2ccnc(N)c2Cl)c(F)c1 [BMS-777607]
SYSTEM NAME: Guanine nucleotide-binding protein G(i) subunit alpha-2 (Homo sapiens); note: in the data inactive means no Kd found up to 30 µM
OBSERVED: > 30 µM (inactive)

MOLECULE: NC(=O)c1ccc(N(C(N)=O)c2c(F)cccc2F)nc1-c1ccc(F)cc1F [VX-702]
SYSTEM NAME: Guanine nucleotide-binding protein G(i) subunit alpha-2 (Homo sapiens); note: in the data inactive means no Kd found up to 30 µM
OBSERVED: > 30 µM (inactive)

MOLECULE: CN(C)C/C=C/C(=O)Nc1cc2c(Nc3ccc(F)c(Cl)c3)ncnc2cc1O[C@H]1CCOC1 [AFATINIB]
SYSTEM NAME: Guanine nucleotide-binding protein G(i) subunit alpha-2 (Homo sapiens); note: in the data inactive means no Kd found up to 30 µM
OBSERVED: > 30 µM (inactive)

MOLECULE: O[C@H]1CC[C@H](Nc2ncc3nc(Nc4c(F)cc(F)cc4F)n([C@H]4CCOC4)c3n2)CC1 [TANZISERTIB]
SYSTEM NAME: Guanine nucleotide-binding protein G(i) subunit alpha-2 (Homo sapiens); note: in the data inactive means no Kd found up to 30 µM
OBSERVED: > 30 µM (inactive)

Turning to the following molecule.
Q: Give measured Kd for Cc1cc(-c2cc(OC(=O)c3ccccc3)ccc2Cl)cc2nnc(Nc3ccc(OCCN4CCCC4)cc3)nc12 [TG100-801] (Guanine nucleotide-binding protein G(i) subunit alpha-2 (Homo sapiens)).
Ans: > 30 µM (inactive)

---

SYSTEM NAME: Serine/threonine-protein kinase 26 (Homo sapiens, UniProt Q9P289); note: in the data inactive means no Kd found up to 30 µM
Sequence (Q9P289 whole entry): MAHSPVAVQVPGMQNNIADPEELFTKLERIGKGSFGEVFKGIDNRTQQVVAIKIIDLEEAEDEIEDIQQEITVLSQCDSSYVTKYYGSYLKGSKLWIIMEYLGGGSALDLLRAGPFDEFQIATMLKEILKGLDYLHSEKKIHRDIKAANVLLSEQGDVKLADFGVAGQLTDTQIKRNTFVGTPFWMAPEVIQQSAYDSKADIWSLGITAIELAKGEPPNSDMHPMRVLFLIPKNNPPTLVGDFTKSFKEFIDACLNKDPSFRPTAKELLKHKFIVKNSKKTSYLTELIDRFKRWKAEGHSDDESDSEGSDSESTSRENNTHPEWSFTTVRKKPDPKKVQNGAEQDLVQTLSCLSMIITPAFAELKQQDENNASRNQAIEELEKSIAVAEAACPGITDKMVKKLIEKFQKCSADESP
Calls of active or inactive are those of the source.
ASSAY READOUT: Kd

A selection of reference data follows.
COMPOUND: COc1cc2ncnc3c2cc1OCCCCCN(C)Cc1ccc(Br)cc1N3 [JNJ-26483327]
Kd: > 30 µM (inactive)
//
COMPOUND: CNC(=O)c1cccc(-c2ccc3c(N4CCOC[C@@H]4C)nc(N4CCOC[C@@H]4C)nc3n2)c1 [VISTUSERTIB]
Kd: > 30 µM (inactive)
//
COMPOUND: O=C(Nc1ccc(OC(F)(F)F)cc1)c1sccc1NCc1ccnc2ccccc12 [OSI-930]
Kd: > 30 µM (inactive)

Attention now turns to another entry.
Q: Provide Kd, system Serine/threonine-protein kinase 26 (Homo sapiens, UniProt Q9P289), entry C[C@@H]1COC(Nc2ccc3ncnc(Nc4ccc(OCc5nccs5)c(Cl)c4)c3c2)=N1 [VARLITINIB]; note: in the data inactive means no Kd found up to 30 µM
Ans: > 30 µM (inactive)

---

SYSTEM NAME: Citron Rho-interacting kinase (Homo sapiens, UniProt O14578); note: in the data inactive means no Kd found up to 30 µM
Sequence (O14578 whole entry): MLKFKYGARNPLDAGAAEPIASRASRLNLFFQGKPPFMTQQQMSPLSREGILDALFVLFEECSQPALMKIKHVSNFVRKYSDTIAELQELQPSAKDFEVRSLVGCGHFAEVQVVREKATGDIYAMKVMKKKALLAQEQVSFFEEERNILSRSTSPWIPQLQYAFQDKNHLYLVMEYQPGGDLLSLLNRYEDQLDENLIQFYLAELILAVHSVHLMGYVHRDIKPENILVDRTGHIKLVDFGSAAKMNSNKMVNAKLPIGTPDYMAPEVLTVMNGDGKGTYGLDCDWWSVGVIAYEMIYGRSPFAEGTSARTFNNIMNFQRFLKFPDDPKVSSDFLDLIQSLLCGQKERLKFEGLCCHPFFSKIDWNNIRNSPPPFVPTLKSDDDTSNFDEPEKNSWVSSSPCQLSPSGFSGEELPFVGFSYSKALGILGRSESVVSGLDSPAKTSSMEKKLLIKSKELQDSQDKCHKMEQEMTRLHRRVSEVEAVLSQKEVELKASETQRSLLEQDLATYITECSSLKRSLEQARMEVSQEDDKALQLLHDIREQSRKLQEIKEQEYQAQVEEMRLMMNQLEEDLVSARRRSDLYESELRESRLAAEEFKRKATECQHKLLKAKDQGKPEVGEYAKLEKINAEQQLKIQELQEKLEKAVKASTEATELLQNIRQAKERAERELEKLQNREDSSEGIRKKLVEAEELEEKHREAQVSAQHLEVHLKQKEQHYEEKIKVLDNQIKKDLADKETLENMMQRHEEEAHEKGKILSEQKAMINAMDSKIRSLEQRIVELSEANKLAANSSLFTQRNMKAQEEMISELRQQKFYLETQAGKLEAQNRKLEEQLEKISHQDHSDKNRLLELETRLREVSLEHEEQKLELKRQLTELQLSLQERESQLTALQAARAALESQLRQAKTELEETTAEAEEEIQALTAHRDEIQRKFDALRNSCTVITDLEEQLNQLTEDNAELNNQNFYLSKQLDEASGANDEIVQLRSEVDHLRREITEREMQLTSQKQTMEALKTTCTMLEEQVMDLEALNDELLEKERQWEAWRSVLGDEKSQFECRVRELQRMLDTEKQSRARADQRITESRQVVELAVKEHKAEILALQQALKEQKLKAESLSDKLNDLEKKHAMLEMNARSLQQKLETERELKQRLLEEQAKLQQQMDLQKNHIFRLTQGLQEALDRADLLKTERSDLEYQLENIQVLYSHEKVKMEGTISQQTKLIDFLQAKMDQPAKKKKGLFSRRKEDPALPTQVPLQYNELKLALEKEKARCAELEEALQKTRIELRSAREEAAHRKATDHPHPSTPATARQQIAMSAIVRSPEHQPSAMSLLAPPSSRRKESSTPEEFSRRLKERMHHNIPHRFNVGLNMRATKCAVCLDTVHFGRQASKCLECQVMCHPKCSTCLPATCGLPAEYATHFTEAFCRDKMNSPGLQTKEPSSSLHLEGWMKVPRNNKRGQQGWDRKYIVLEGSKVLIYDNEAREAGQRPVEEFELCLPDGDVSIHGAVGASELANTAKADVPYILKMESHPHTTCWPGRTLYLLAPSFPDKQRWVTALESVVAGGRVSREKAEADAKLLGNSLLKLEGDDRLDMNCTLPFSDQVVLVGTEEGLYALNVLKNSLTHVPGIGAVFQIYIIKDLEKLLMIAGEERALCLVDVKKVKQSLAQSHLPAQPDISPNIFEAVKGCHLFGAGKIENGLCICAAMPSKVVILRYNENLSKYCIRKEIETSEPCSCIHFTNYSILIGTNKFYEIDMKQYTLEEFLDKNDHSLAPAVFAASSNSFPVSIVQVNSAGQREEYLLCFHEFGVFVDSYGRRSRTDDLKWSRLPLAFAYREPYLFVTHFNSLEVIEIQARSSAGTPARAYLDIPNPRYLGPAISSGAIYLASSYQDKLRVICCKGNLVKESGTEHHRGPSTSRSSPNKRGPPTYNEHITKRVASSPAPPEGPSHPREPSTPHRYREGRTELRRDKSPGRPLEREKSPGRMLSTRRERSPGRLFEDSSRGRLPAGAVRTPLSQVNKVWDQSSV
The source made the active and inactive calls.
Outcomes you can answer with include only these: active, inactive

Q: How was Cc1cc(Nc2nc(N[C@@H](C)c3ncc(F)cn3)ncc2Cl)n[nH]1 classified in this test?
Ans: inactive

Q: Please state the recorded outcome for this compound: Cn1cc(-c2[nH]c3cc(NC(=O)[C@H](N)C4CCCCC4)cc4c3c2C=NNC4=O)cn1
Ans: active

Q: How was C[C@@H]1COC(Nc2ccc3ncnc(Nc4ccc(OCc5nccs5)c(Cl)c4)c3c2)=N1 classified in this test?
Ans: inactive

Q: Write down the call the test reported for this compound. Item: CNC(=O)c1cc(COc2nnc(Nc3ccc(Cl)cc3)c3ccoc23)ccn1
Ans: inactive

Q: What did this assay record as the result for COc1cccc2cc(-c3nc([C@H]4CC[C@H](C(=O)O)CC4)n4ncnc(N)c34)[nH]c12 ?
Ans: inactive

---

SYSTEM NAME: Cytochrome c1, heme protein, mitochondrial (Homo sapiens, UniProt P08574); note: in the data inactive means no Kd found up to 30 µM
Sequence (P08574 whole entry): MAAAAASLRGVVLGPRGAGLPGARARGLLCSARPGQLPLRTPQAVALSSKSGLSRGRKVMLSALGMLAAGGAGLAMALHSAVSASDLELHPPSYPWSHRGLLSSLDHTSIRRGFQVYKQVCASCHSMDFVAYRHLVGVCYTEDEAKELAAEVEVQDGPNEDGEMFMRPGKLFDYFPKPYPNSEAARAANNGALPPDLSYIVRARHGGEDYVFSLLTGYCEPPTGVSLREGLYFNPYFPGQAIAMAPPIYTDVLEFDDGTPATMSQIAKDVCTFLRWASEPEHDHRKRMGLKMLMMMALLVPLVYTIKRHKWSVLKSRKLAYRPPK
Activity calls are given as the source filed them.
Below is a list of entries, each paired with its recorded Kd value.

As a guide, the following entries are already answered.
COMPOUND STRUCTURE STRING: Cc1cc(Nc2nc(N[C@@H](C)c3ncc(F)cn3)ncc2Cl)n[nH]1
Kd: > 30 µM (inactive)
--
COMPOUND STRUCTURE STRING: S=C(NCc1ccc2c(c1)OCO2)N1CCN(c2ncnc3c2oc2ccccc23)CC1
Kd: > 30 µM (inactive)
--
COMPOUND STRUCTURE STRING: C#Cc1cccc(Nc2ncnc3cc4c(cc23)OCCOCCOCCO4)c1
Kd: > 30 µM (inactive)

Now turn to the next molecule.
Q: Recall the reported Kd of O=C(NC[C@H](O)CO)c1ccncc1Nc1ccc(I)cc1F on Cytochrome c1, heme protein, mitochondrial (Homo sapiens, UniProt P08574) and write it down.
Ans: > 30 µM (inactive)
